pEC50 values for the compounds below.
- experiment description: Inhibition of HIV1 reverse transcriptase K103N/Y181C double mutant infected in human MT2 cells assessed as protection against viral infection by MTT assay
Hey, just a heads up that pEC50 is the negative log base 10 of the concentration in molar.

1. N#Cc1ccc2ccc(Oc3ccccc3OCCn3ccc(=O)[nH]c3=O)cc2c1 | 5.40
2. N#Cc1ccc2c(Cl)cc(Oc3ccc(F)cc3OCCn3ccc(=O)[nH]c3=O)cc2c1 | 5.39
3. Cc1cc(Oc2ccccc2OCCn2ccc(=O)[nH]c2=O)cc2cc(C#N)ccc12 | 5.54
4. CCOc1cc(Oc2ccccc2OCCn2ccc(=O)[nH]c2=O)c(C)c2cc(C#N)ccc12 | 6.10

Moving on to another compound below.
Sample "N#Cc1ccc2c(F)cc(Oc3ccc(F)cc3OCCn3ccc(=O)[nH]c3=O)c(Cl)c2c1" ; pEC50 observed: 5.80

* * *

- experiment description: Inhibition of HIV1 reverse transcriptase Y181C mutant infected in human MT2 cells assessed as protection against viral infection by MTT assay
property label: pEC50
Please treat pEC50 as minus the base-10 logarithm of the molar concentration.

Answered cases to consult:
1) Cc1c(Oc2ccccc2OCCn2ccc(=O)[nH]c2=O)cc(Cl)c2ccc(C#N)cc12 | 7.24
2) N#Cc1ccc2ccc(Oc3ccc(F)cc3OCCn3ccc(=O)[nH]c3=O)cc2c1 | 5.92
3) Cc1cc(Oc2ccccc2OCCn2ccc(=O)[nH]c2=O)c(C)c2cc(C#N)ccc12 | 7.21
4) Cc1cc(Oc2ccccc2OCCn2ccc(=O)[nH]c2=O)c(Cl)c2cc(C#N)ccc12 | 7.38
5) Cc1c(Oc2ccc(F)cc2OCCn2ccc(=O)[nH]c2=O)cc(F)c2ccc(C#N)cc12 | 7.51

response.value for "N#Cc1ccc2c(Cl)cc(Oc3ccccc3OCCn3ccc(=O)[nH]c3=O)cc2c1" (field: pEC50) = 6.05

For record "N#Cc1ccc2ccc(Oc3ccccc3OCCn3ccc(=O)[nH]c3=O)cc2c1" the listed pEC50 is 5.59

What the record says about "Cc1cc(Oc2ccc(F)cc2OCCn2ccc(=O)[nH]c2=O)c(F)c2cc(C#N)ccc12" : pEC50 is 5.92

* * *

- experiment description: Inhibition of HIV1 reverse transcriptase Y181C mutant infected in human MT2 cells assessed as protection against viral infection by MTT assay
EC50 vs 200 nM: less than gives class 1; not less than gives class 0.

Solved cases (5 shown):
1. N#Cc1ccc2c(F)cc(Oc3ccccc3OCCn3ccc(=O)[nH]c3=O)c(Cl)c2c1 | class 1
2. N#Cc1ccc2c(Cl)cc(Oc3ccc(F)cc3OCCn3ccc(=O)[nH]c3=O)cc2c1 | class 0
3. Cc1cc(Oc2ccc(F)cc2OCCn2ccc(=O)[nH]c2=O)c(C)c2cc(C#N)ccc12 | class 1
4. N#Cc1cc2c(Oc3ccc(F)cc3OCCn3ccc(=O)[nH]c3=O)cc(F)cn2c1 | class 0
5. Cc1c(Oc2ccccc2OCCn2ccc(=O)[nH]c2=O)cc(F)c2ccc(C#N)cc12 | class 1

q: Does this molecule meet the criterion EC50 < 200 nM? "CCCc1cc(Oc2ccccc2OCCn2ccc(=O)[nH]c2=O)c(C)c2cc(C#N)ccc12"
a: class 0

* * *

- experiment description: Inhibition of HIV1 reverse transcriptase K103N/Y181C double mutant infected in human MT2 cells assessed as protection against viral infection by MTT assay
pEC50: −log10 of the molar value.
Entry flag: met if pEC50 reaches 6; not met if it does not.

Before answering, review these 10 worked examples.
1. N#Cc1cc2c(Oc3ccc(F)cc3OCCn3ccc(=O)[nH]c3=O)cc(F)cn2c1 | met
2. Cc1cc2ccc(C#N)cc2c(C)c1Oc1ccccc1OCCn1ccc(=O)[nH]c1=O | not met
3. N#Cc1ccc2cc(Oc3ccccc3OCCn3ccc(=O)[nH]c3=O)ccc2c1 | not met
4. COc1cc(Oc2ccccc2OCCn2ccc(=O)[nH]c2=O)c(C)c2cc(C#N)ccc12 | not met
5. CCc1cc(Oc2ccccc2OCCn2ccc(=O)[nH]c2=O)c(C)c2cc(C#N)ccc12 | met
6. N#Cc1ccc2ccc(Oc3ccc(F)cc3OCCn3ccc(=O)[nH]c3=O)cc2c1 | not met
7. N#Cc1ccc2c(F)cc(Oc3ccccc3OCCn3ccc(=O)[nH]c3=O)c(Cl)c2c1 | met
8. Cc1cc(Oc2ccc(F)cc2OCCn2ccc(=O)[nH]c2=O)c(C)c2cc(C#N)ccc12 | met
9. Cc1c(Oc2ccccc2OCCn2ccc(=O)[nH]c2=O)cc(C(C)C)c2ccc(C#N)cc12 | met
10. Cc1c(Oc2ccc(F)cc2OCCn2ccc(=O)[nH]c2=O)cc(Cl)c2ccc(C#N)cc12 | met

q: State whether the measured pEC50 reaches 6, counting equality as reaching it, for "Cc1cc(Oc2ccccc2OCCn2ccc(=O)[nH]c2=O)c(Cl)c2cc(C#N)ccc12"
a: met

q: Hi, just wondering whether "Cc1cc(Oc2ccccc2OCCn2ccc(=O)[nH]c2=O)c(C)c2cc(C#N)ccc12" shows pEC50 of 6 or higher.
a: met

q: Please indicate if the recorded pEC50 for "Cc1cc(Oc2ccc(F)cc2OCCn2ccc(=O)[nH]c2=O)c(F)c2cc(C#N)ccc12" meets or exceeds 6.
a: not met

* * *

- experiment description: Inhibition of HIV1 reverse transcriptase K103N/Y181C double mutant infected in human MT2 cells assessed as protection against viral infection by MTT assay
With a cut-off of 900 nM, any EC50 strictly below it is called condition met; any EC50 meeting it or above is called condition not met.

1) Cc1c(Oc2ccc(F)cc2OCCn2ccc(=O)[nH]c2=O)cc(F)c2ccc(C#N)cc12 | condition not met

q: Item "CCCc1cc(Oc2ccccc2OCCn2ccc(=O)[nH]c2=O)c(C)c2cc(C#N)ccc12" : EC50 beneath 900 nM, strictly?
a: condition not met

* * *

- experiment description: Inhibition of HIV1 reverse transcriptase K103N/Y181C double mutant infected in human MT2 cells assessed as protection against viral infection by MTT assay
property label: EC50

Reference set (5 entries):
1. Cc1c(Oc2ccccc2OCCn2ccc(=O)[nH]c2=O)cc(F)c2ccc(C#N)cc12 | 0.89 µM
2. Cc1c(Oc2ccc(Cl)cc2OCCn2ccc(=O)[nH]c2=O)cc(F)c2ccc(C#N)cc12 | > 0.1 µM
3. COCc1cc(Oc2ccccc2OCCn2ccc(=O)[nH]c2=O)c(C)c2cc(C#N)ccc12 | 0.79 µM
4. N#Cc1ccc2c(Cl)cc(Oc3ccccc3OCCn3ccc(=O)[nH]c3=O)cc2c1 | 0.89 µM
5. Cc1c(Oc2ccccc2OCCn2ccc(=O)[nH]c2=O)c(C)c2cc(C#N)ccc2c1C | 0.79 µM

"Cc1c(Oc2ccccc2OCCn2ccc(=O)[nH]c2=O)cc(CC2CC2)c2ccc(C#N)cc12" has a reported EC50 of 1.2 µM

Values were extracted from BindingDB's records for doi:10.1021/acsmedchemlett.6b00390.
